The measured values listed here are drawn from patent US20240122876A1.

tested target: RPE65 (Bos taurus (Bovine))
assay text: RPE65 retinoid isomerase activity assay (11-cis-retinol production by bovine RPE microsomes)
experimental context: inhibition of RPE65-mediated isomerization; decline in 11-cis-retinol production, bovine RPE microsomes
Hi there, I'd appreciate the recorded IC50 for every entry that follows.

# annotated cases, reported IC50 shown
{"compound": "NCCC(O)c1ccc(F)c(OCC2CCCCC2)c1 (stereo not drawn)", "IC50": "95 nM"}
{"compound": "CC1=C(COc2cccc(C(O)CCN)c2F)C(C)(C)CCC1 (stereo not drawn)", "IC50": "169 nM"}
{"compound": "CCCC(CCC)COc1cccc([C@H](O)CCN)c1 [(R)-MB-004, reference compound]", "IC50": "106 nM"}

Batch request: IC50 per item, same order as input.
1. CC1=C(COc2ccc(F)c(C(O)CCN)c2)C(C)(C)CCC1 (stereo not drawn)
2. CC1=C(COc2cc(C(O)CCN)ccc2F)C(C)(C)CCC1 (stereo not drawn)
3. CCCC(CCC)COc1cc(F)cc(C(O)CCN)c1 (racemic) [Compound 26]
4. CCCC(CCC)COc1cc([C@@H](O)CCN)ccc1F

124 nM
284 nM
184 nM
177 nM

Batch request: IC50 per item, same order as input.
1. CC1=C(COc2cc(F)cc(C(O)CCN)c2)C(C)(C)CCC1 (stereo not drawn)
2. CC1=C(COc2cccc([C@H](O)CCN)c2)C(C)(C)CCC1 [(R)-MB-001, reference compound]

["292 nM", "323 nM"]

----------
tested target: RPE65 (Bos taurus (Bovine))
assay text: RPE65 retinoid isomerase activity assay (11-cis-retinol production by bovine RPE microsomes)
experimental context: inhibition of RPE65-mediated isomerization; decline in 11-cis-retinol production, bovine RPE microsomes
Hi there, I'd appreciate the recorded IC50 for every entry that follows.
Give bare numbers, in nM.

# annotated cases, reported IC50 shown
{"compound": "CCCC(CCC)COc1cccc(C(O)CCN)c1F (racemic) [Compound 29]", "unit": "nM", "IC50": 287}
{"compound": "[2H]C([2H])(N)CC(O)c1cccc(OCC2CCC(F)(F)CC2)c1 (stereo not shown) [Compound 59]", "unit": "nM", "IC50": 269}

Batch request: IC50 per item, same order as input.
1. CCCC(CCC)COc1cccc(C(O)CCN)c1F (racemic) [Compound 30]
2. CCCC(CCC)COc1ccc(F)c(C(O)CCN)c1 (racemic) [Compound 27]

274
157

----------
tested target: RPE65 (Bos taurus (Bovine), UniProt Q28175)
Sequence (Q28175 whole entry): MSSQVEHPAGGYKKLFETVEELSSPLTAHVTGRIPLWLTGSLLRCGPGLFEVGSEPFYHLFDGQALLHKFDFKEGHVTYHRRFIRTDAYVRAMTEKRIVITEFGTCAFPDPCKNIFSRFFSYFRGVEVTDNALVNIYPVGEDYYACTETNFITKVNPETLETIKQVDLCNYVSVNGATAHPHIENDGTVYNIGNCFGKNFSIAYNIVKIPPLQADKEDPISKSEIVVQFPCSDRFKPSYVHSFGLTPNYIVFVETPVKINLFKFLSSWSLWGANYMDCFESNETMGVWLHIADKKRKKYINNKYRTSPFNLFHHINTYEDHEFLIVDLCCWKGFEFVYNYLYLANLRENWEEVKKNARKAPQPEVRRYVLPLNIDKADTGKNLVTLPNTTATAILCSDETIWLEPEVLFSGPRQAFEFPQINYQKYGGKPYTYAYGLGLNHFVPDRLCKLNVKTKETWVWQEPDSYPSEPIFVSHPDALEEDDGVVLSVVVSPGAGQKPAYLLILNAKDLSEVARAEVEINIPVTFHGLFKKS
assay text: RPE65 retinoid isomerase activity assay (11-cis-retinol production by bovine RPE microsomes)
experimental context: inhibition of RPE65-mediated isomerization; decline in 11-cis-retinol production, bovine RPE microsomes
outcome measure: pIC50
Numbers only, as −log10 of the molar value.

# annotated cases, reported pIC50 shown
{"compound": "CCCC(CCC)COc1cc(F)cc(C(O)CCN)c1 (racemic) [Compound 25]", "pIC50": 6.53}
{"compound": "NCCC(O)c1cc(F)cc(OCC2CCCCC2)c1 (stereo not drawn) [Compound 50]", "pIC50": 6.70}
{"compound": "NCCC(O)c1cc(OCC2CCCCC2)ccc1F (stereo not drawn) [Compound 51]", "pIC50": 6.84}
{"compound": "CCCC(CCC)COc1ccc(F)c(C(O)CCN)c1 (racemic) [Compound 28]", "pIC50": 6.88}
{"compound": "CCCC(CCC)COc1cc([C@H](O)CCN)ccc1F [Compound 24]", "pIC50": 7.30}

Could you now look at the following compound, please?
Value lookup for pIC50; key = NCCC(O)c1cccc(OCC2CCCCC2)c1F (stereo not drawn) [Compound 52] 6.45
